# Tested on: A-673 human rhabdomyosarcoma cell strain
parameter_measured: IC50

(Q) So what does the record say about IC50 for C=CC(C)(C)c1[nH]cnc1/C=C1\NC(=O)[C@H](Cc2ccccc2)NC1=O [(−)phenylahistin, reference compound] ?
(A) > 600 nM
